# protocolDescription: protein stability index of a GFP-peptide fusion (GPS, HEK-293T) (PSI 1-6); higher = more stable;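 further: 24-mer peptide tiles fused after GFP, lentivirally expressed, FACS-sorted into six equal bins by GFP/DsRed ratio, decoded by Illumina sequencing, PSI is the read-weighted mean bin number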
# experimentalParameters: treatment: MLN4924 1 uM, 8 h; c terminus: a fixed tail appended
So basically: protein stability index at 3 or higher? That is yes. Lower than 3? That is no.

>>> answerlabel("SAASTSFQPQPVQPQQGYIPPMAQ [ZNF207]")
"yes"
>>> answerlabel("PQQAPQDDGSQDPEVLDRESRDRP [PWWP2B]")
"yes"
>>> answerlabel("TNEKALEAVFGKYGRIVEVLLMKD [RBMX]")
"no"
>>> answerlabel("DRPDLSLTVLPKLQARERGEEQVE [C2CD2L]")
"yes"
>>> answerlabel("QMKQKVQSLYQEVFGRLRDENGRP [NFE2L1]")
"yes"
>>> answerlabel("SINVLLMMHGLKPLSLVKRTDLKD [CEP70]")
"no"
>>> answerlabel("MGLVETKLAIIPGGGGTQRLPRAI [AUH]")
"yes"
>>> answerlabel("EEDIQGPTKADTEKWAEGGGHSRE [CHGB]")
"yes"
>>> answerlabel("GKGFRHSSSLAQHQRKHAGEKPFE [ZNF8]")
"yes"
>>> answerlabel("AVETEGSGSRHPPWARGCGMFTFL [SLC2A12]")
"no"
>>> answerlabel("TQGCHPAWEPRSESQASRKEEGLP [ZNF8]")
"yes"
>>> answerlabel("HDFIEHILRKLPQQREKLSLIRKH [CCND2]")
"no"
>>> answerlabel("EKMEEEEQTCDPDSSLHWSSSYSP [ZNF396]")
"yes"
>>> answerlabel("VAVALRKPDGSRHQDVPSQDDSKP [AASDHPPT]")
"yes"
>>> answerlabel("EPFGKERDAAIKKLATEAGVEVIV [CRY1]")
"yes"
>>> answerlabel("DQLTQIMRTGQNTWESKNILAVSF [PCMTD1]")
"no"
>>> answerlabel("FLCLQYRLRGKLRAEIENLHRTFD [MOG]")
"no"
>>> answerlabel("HSLDLNISEKLTLLPTLYEIHSKT [RNF180]")
"no"
>>> answerlabel("PQVLSQEFTELLKVMIHPDPERRP [WEE1]")
"yes"
>>> answerlabel("QLKIAANPFAKGFRENGRNCKRER [TBX6]")
"yes"
>>> answerlabel("AALIYFAISITAIAKYSDGASKAA [CMTM3]")
"yes"
>>> answerlabel("GPLAQPLTLQVLVAGNPQDTRLRY [ADAMTS4]")
"no"
>>> answerlabel("KYKRRRFQKTKNLLTGETEADPEM [CLPTM1]")
"yes"
>>> answerlabel("NKVAGHPLAQNERCLHMFLQDEII [SNX3]")
"no"
>>> answerlabel("DNALWERDRNLLQEDKALWEEEKA [CCDC70]")
"yes"
